# STUDY SYSTEM: Recombinant Btk (Homo sapiens (Human), UniProt Q06187)
# Sequence (Q06187 whole entry): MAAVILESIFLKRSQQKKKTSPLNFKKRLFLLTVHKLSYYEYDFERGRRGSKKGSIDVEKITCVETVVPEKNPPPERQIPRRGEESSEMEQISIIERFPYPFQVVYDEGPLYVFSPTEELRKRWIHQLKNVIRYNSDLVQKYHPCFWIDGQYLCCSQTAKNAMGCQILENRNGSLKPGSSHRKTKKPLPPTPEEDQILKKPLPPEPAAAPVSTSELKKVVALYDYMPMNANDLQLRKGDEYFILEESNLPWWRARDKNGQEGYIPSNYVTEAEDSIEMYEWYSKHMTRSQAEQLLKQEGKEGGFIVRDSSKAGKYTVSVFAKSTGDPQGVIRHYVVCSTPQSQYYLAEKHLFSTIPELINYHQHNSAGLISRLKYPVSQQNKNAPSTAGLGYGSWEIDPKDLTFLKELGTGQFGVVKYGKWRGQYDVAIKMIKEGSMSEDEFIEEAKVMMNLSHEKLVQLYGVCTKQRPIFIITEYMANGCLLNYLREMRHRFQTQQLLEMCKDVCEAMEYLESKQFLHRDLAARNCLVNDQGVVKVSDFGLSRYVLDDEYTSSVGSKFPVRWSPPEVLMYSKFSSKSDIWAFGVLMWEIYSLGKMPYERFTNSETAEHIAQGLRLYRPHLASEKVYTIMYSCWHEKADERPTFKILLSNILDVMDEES
# ASSAY REMARKS: BTK kinase assay (TR-FRET)
# MEASUREMENT PARAMETERS: read-out: IC50 (nM) Btk; 1 hour pre-incubation, ATP at Km
MEASURE NAME: IC50 (nM)
Expressed in nM, but write only the number.

Answered cases to consult:
MOLECULE | IC50 / nM
COc1cc(-c2nn3c(c2C(N)=O)NCCC3c2ccccc2NC(=O)/C=C/CN(C)C)ccc1C (stereo not shown) [Compound 165] | 1.6
NC(=O)c1c(-c2ccc(Oc3ccccc3)cc2)nn2c1NCCC21CCN(Cc2ccccc2)CC1 [Compound 41] | 180
C=CC(=O)Nc1ccc(Cl)c(C2CCNc3c(C(N)=O)c(-c4ccc(Oc5ccccc5)cc4)nn32)c1 (stereo not shown) [Compound 96] | 30
NC(=O)c1c(-c2ccc(Oc3ccc(F)cc3)cc2)nn2c1NCCC2c1ccccc1N (stereo not shown) [Compound 11] | 4500
C=CC(=O)NCC1CCNc2c(C(N)=O)c(-c3cnn(Cc4ccccc4)c3)nn21 (stereo not shown) [Compound 37] | 640
C=CC(=O)N1CCC2[C@H](CNc3c(C(N)=O)c(-c4ccc(Oc5ccccc5)cc4)nn32)C1 (single isomer, unassigned) [Compound 30b] | 16

Proceed to the following item.
Short answer please: IC50, Recombinant Btk (Homo sapiens (Human), UniProt Q06187), entry NC(=O)c1c(-c2ccc(Oc3ccccc3)cc2)nn2c1NCC(N)C2 (stereo not shown) [Compound 84] 2900

----------
# STUDY SYSTEM: Recombinant Btk (Homo sapiens (Human))
# ASSAY REMARKS: BTK kinase assay (TR-FRET)
# MEASUREMENT PARAMETERS: read-out: IC50 (nM) Btk; 1 hour pre-incubation, ATP at Km
MEASURE NAME: IC50 (nM)
Reply numerically in nM, unit not repeated.

Consider the worked cases shown below.
COMPOUND | UNITS SYMBOL | OBSERVED RESULT
C=CC(=O)Nc1ccccc1C1CCNc2c(C(N)=O)c(-c3ccc(F)c(Br)c3)nn21 (stereo not shown) | nM | 1.2
CC#CC(=O)N1CC(C2CCNc3c(C(N)=O)c(-c4ccc(Oc5ccccc5)cc4)nn32)C1 (stereo not shown) | nM | 4.7

Pending compound:
Requested read-out IC50, target or system Recombinant Btk (Homo sapiens (Human)), entry C=CC(=O)Nc1ccccc1C1CCNc2c(C(N)=O)c(-c3ccc(F)c(F)c3)nn21 (stereo not shown) 3.2

----------
# STUDY SYSTEM: Recombinant Btk (Homo sapiens (Human))
# ASSAY REMARKS: BTK kinase assay (TR-FRET)
# MEASUREMENT PARAMETERS: read-out: IC50 (nM) Btk; 1 hour pre-incubation, ATP at Km
MEASURE NAME: IC50

As a guide, the following entries are already answered.
COMPOUND | STUDY SYSTEM | OBSERVED RESULT
CN(C)C/C=C/C(=O)Nc1ccccc1C1CCNc2c(C(N)=O)c(-c3ccc(Oc4ccccc4)cc3)nn21 (stereo not shown) | Recombinant Btk (Homo sapiens (Human)) | 1.1 nM
C=CC(=O)N1CCC(C2(C)CCNc3c(C(N)=O)c(-c4ccc(Oc5ccccc5)cc4)nn32)CC1 (stereo not shown) | Recombinant Btk (Homo sapiens (Human)) | 1 nM

Record request: IC50 value, item `NC(=O)c1c(-c2ccc(Oc3ccccc3)cc2)nn2c(C3CCNCC3)cc(=O)[nH]c12` > 10000 nM

Would you kindly repeat that for C=CC(=O)N1CC(C2CCNc3c(C(N)=O)c(-c4ccc(OCCc5ccccc5)cc4)nn32)C1 (stereo not shown) ? 7 nM

Same for CNc1ccccc1C1CCNc2c(C(N)=O)c(-c3ccc(Oc4ccc(F)cc4)cc3)nn21 (stereo not shown) 2700 nM

Proceed to C=CC(=O)Nc1ccccc1C1CCNc2c(C(N)=O)c(-c3ccc(F)c(C)c3)nn21 (stereo not shown) 0.38 nM

Now the same for C=CC(=O)Nc1cc(Cl)ccc1C1CCNc2c(C(N)=O)c(-c3ccc(OCC4CC4)cc3)nn21 (stereo not shown) 2.7 nM

Another: NC(=O)c1c(-c2ccc(Oc3ccccc3)cc2)nn2c1NCC(c1cccc(N)c1)C2 (stereo not shown) 1900 nM

Next: `NC(=O)c1c(-c2ccc(Oc3ccccc3)cc2)nn2c1NC(=O)Cc1cc([N+](=O)[O-])ccc1-2` > 10000 nM

Try the compound `NC(=O)c1c(-c2ccc(Oc3ccccc3)cc2)nn2c1[nH]c(=O)c1ccc(N)cc12` 50 nM

Another: `NC(=O)c1c(-c2ccc(Oc3ccccc3)cc2)nn2c1NCC1(CNC1)C2` 2000 nM

Could you do the same for C=CC(=O)N1CC(C2CCNc3c(C(N)=O)c(-c4ccc(OCc5ccccn5)cc4)nn32)C1 (stereo not shown) , please? 18 nM

Next compound: C=CC(=O)NCC1CCNc2c(C(N)=O)c(-c3ccc(OCC4CC4)cc3)nn21 (stereo not shown) 94 nM
